FYI, the data here is from PubChem BioAssay (EPA / NIEHS).

Test: Tanguay_ZF_120hpf_PFIN_legacy: (Legacy) Oregon State University Tanguay Lab 120 Hour Post-fertilization zebrafish Assay for Pectoral Fin Malformation (AID 2283648);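 further: each larva judged yes or no for fin defect by brightfield with dead larvae skipped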
Experimental: Tanguay_ZF_120hpf_legacy is a whole embryo, multiplexed endpoint assay using zebrafish larvae exposed for 120 hours post fertilization on a 96-well plate.Tanguay_ZF_120hpf_PFIN_legacy is one of one assay component(s) measured or calculated from the Tanguay_ZF_120hpf_legacy assay. […] This assay endpoint, Tanguay_ZF_120hpf_PFIN_legacy, was analyzed in the positive analysis fitting direction relative to DMSO as the negative control and baseline of activity. […]
Records with an inconclusive call do not appear. The source made the active and inactive calls. How the source made its calls: active means hit-call score of the fitted dose curve at least 0.9, where 1 is the maximum; inconclusive means response in the unintended direction; inactive means score below 0.9.
outcome-measure: outcome

compound	measured-value
CCOC(=O)c1ccc(C2CCC(NC[C@H](O)COc3ccc(O)c(NS(C)(=O)=O)c3)CC2)cc1 (stereo partly drawn)	inactive
CCn1nc(Cc2ccccc2)cc1C1CCN(C[C@H]2C[C@H](N(C)[C@@H](C(=O)O)C(C)C)C[C@@H]2c2cccc(F)c2)CC1	inactive
Cc1ccc(C)c(O)c1	inactive
COC(=O)CC(=O)OC	inactive
CC1=CC(=O)CC(C)(C)C1	inactive
Cc1[nH]cnc1C[C@H]1CCc2c(C)c3ccccc3n2C1=O	inactive
NC(=O)NO	inactive
Cn1c(=O)c2c(ncn2C)n(C)c1=O	inactive
CCCCCCc1ccc(O)cc1O	inactive
CCCCCCCCO	inactive
COCCOCCOCCOC	inactive
CCCN(C1CCN(C(=O)C2CCNCC2)CC1)[C@@H]1CCc2ccc(OC)cc2C1	inactive
O=C(O)CC(O)C(=O)O (stereo not drawn)	inactive
